Tested on: U251 CNS
PROCEDURE SUMMARY: NCI-60 one-dose screen, 48 h
ASSAY SETUP: 10 µM unless noted
Compounds without any hit were thinned out: in the full panel of roughly 83,000, 20% have a hit. The source made the active and inactive calls. Rule for the calls: active = growth percent below 10; inactive = the rest.
Classes used: 1 for active, 0 for inactive

>  <COMPOUND>
Cc1ccc(S(=O)(=O)NCCNc2cc(-c3cn(C(C)(C)C)nc3-c3cccc(O)c3)ccn2)cc1

>  <ASSIGNED LABEL>
0

$$$$
>  <COMPOUND>
c1ccc(-c2nc(N3CCNCC3)c3nc(-c4ccccc4)oc3n2)cc1

>  <ASSIGNED LABEL>
1

$$$$
>  <COMPOUND>
Cc1[nH]c2ccc(F)cc2c1CCNC(=O)C1CCN(C(=O)c2ccccc2)C1 (stereo not given)

>  <ASSIGNED LABEL>
0

$$$$
>  <COMPOUND>
FC(F)(F)c1ccccc1-c1cn2c(ccc3ccccc32)n1

>  <ASSIGNED LABEL>
0

$$$$
>  <COMPOUND>
CCN(CC)CCOC(=O)C(c1ccccc1)(c1ccccc1)C(C)C

>  <ASSIGNED LABEL>
0

$$$$
>  <COMPOUND>
COc1cc(NC(N)=NCCC(C)(C)Oc2ccc(C(F)(F)F)cc2)ncc1C#N

>  <ASSIGNED LABEL>
1

$$$$
>  <COMPOUND>
Cc1ccc(S(=O)(=O)n2cc(C(=O)C(=O)Nc3ccncc3)c3ccccc32)cc1

>  <ASSIGNED LABEL>
0

$$$$
>  <COMPOUND>
COc1cc([N+](=O)[O-])c2ncccc2c1O

>  <ASSIGNED LABEL>
0

$$$$
>  <COMPOUND>
O=S(=O)(NCCNc1nccc(-c2c(-c3ccc(F)cc3)nc3sccn23)n1)c1ccc(F)cc1

>  <ASSIGNED LABEL>
0

$$$$
>  <COMPOUND>
CCCCCCCC[C@@H](O)CC(=O)N[C@@H](CC(N)=O)C(=O)N[C@@H](CCC(N)=O)C(=O)N[C@@H](CC(=O)c1cc(C)cc(O)c1C(=O)c1c(O)cccc1O)CC(C)C

>  <ASSIGNED LABEL>
1

$$$$
>  <COMPOUND>
OCCCCCCNc1ncnc2cc(Cl)ccc12

>  <ASSIGNED LABEL>
0

$$$$
>  <COMPOUND>
COc1ccc(-n2c(=S)sc3c(Cl)nc(C)nc32)c(OC)c1

>  <ASSIGNED LABEL>
1

$$$$
>  <COMPOUND>
COc1cc(/C=C/C(=O)c2cccc(-n3cc(-c4cc(OC)c(OC)c(OC)c4)[nH]c3=O)c2)cc(OC)c1OC

>  <ASSIGNED LABEL>
1

$$$$
>  <COMPOUND>
ClC(Cl)c1nc(-c2cccnc2)n2nc(-c3ccccc3)cc2n1

>  <ASSIGNED LABEL>
1

$$$$
>  <COMPOUND>
O=C1NC(=C(Cl)Cl)/C(=N/S(=O)(=O)N2CCC(C3(C(F)(F)F)N=N3)CC2)N1

>  <ASSIGNED LABEL>
0

$$$$
>  <COMPOUND>
COc1cccc(/C=C2\Oc3cc(OCCCN4CCCC4)ccc3C2=O)c1

>  <ASSIGNED LABEL>
0

$$$$
>  <COMPOUND>
COc1ccc(-c2c(-c3cc(OC)c4c(c3)OCO4)noc2N)cc1

>  <ASSIGNED LABEL>
0

$$$$
>  <COMPOUND>
Cc1ccc(S(=O)(=O)NC(=O)n2cc(-c3ccncc3)c(-c3ccc(Cl)c(O)c3)n2)cc1

>  <ASSIGNED LABEL>
0

$$$$
>  <COMPOUND>
O=c1c2sc3ncccc3c2nnn1-c1ccccc1

>  <ASSIGNED LABEL>
0

$$$$
>  <COMPOUND>
CC12CCC3C4(C)COC(c5ccccc5Cl)OC4CCC3(C)C1CC(C1=CCOC1=O)O2 (stereo not given)

>  <ASSIGNED LABEL>
0

$$$$

Entry source: PubChem BioAssay (NCI)
